Documented EC50 Human APJ Receptor across a set of binders
# target: T1, human APJ receptor (human, UniProt P35414 1-380)
# T1 sequence (looked up): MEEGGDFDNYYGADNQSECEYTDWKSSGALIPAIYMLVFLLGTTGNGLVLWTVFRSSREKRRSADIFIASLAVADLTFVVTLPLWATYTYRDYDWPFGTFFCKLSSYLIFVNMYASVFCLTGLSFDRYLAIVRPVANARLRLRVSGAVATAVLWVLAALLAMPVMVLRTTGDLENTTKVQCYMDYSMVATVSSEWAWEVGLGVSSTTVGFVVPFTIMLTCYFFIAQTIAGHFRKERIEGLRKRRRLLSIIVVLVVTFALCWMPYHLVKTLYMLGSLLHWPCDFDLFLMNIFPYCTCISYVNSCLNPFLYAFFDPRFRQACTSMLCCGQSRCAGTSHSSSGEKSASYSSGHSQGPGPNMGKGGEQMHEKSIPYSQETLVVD
# test-method-notes: cell-based or functional assay
Starred links: 1 amine or outer side, 2 acyl side, 3 side chain; linkers in the order of their positions; H or OH if unused. Non-standard residues stand in square brackets, D forms with d. Primed or numbered codes have the meaning given here. *: point of attachment. AC4Abu = α-carboxy-4-aminobutyric acid, O=C(C(CCN[*:1])C(=O)[*:3])[*:2]; Oic = O=C(O)[C@@H]1C[C@@H]2CCCC[C@@H]2N1; Phe(4-Cl) = N[C@@H](Cc1ccc(Cl)cc1)C(=O)O; dPhe(4-Cl) = N[C@H](Cc1ccc(Cl)cc1)C(=O)O; γGlu = O=C(O)[C@H](CCC(=O)[*:2])N[*:1]; NMeR = CN[C@@H](CCCNC(=N)N)C(=O)O; Palmitoyl = CCCCCCCCCCCCCCCC(=O)*; β3hF = N[C@H](CC(=O)O)Cc1ccccc1; Cha = N[C@@H](CC1CCCCC1)C(=O)O; Pip = O=C(O)[C@@H]1CCCCN1; Nle = CCCC[C@H](N)C(=O)O; Pip′ = not defined here; AEEA = NCCOCCOCC(=O)O; Aib = CC(C)(N)C(=O)O; NPrGly = CCCNCC(=O)O
measured-parameter: EC50 Human APJ Receptor (nM)

binder="XXXQRPRLSHKGPXPF ({Oc}[AC4Abu][Aeea][Aeea]QRP[NMeArg]LSHKGP[Nle]P[4-Cl-F]{COOH}) [SEQ ID NO: 493]" reading=0.12
binder="Palmitoyl-[AC4Abu][AEEA][AEEA][dQ]RP[NMeR][Cha][NPrGly]HKG[Pip′][Nle][Aib][Phe(4-Cl)]-OH [SEQ ID NO: 643]" reading=0.463
binder="Palmitoyl-[AC4Abu][AEEA][AEEA][dQ]RP[NMeR][Cha]SHKG[Oic][Nle][β3hF]-OH (SMILES CCCCCCCCCCCCCCCC(=O)NCCC(C(=O)O)C(=O)NCCOCCOCC(=O)NCCOCCOCC(=O)N[C@H](CCC(N)=O)C(=O)N[C@@H](CCCNC(=N)N)C(=O)N1CCC[C@H]1C(=O)N(C)[C@@H](CCCNC(=N)N)C(=O)N[C@@H](CC1CCCCC1)C(=O)N[C@@H](CO)C(=O)N[C@@H](Cc1c[nH]cn1)C(=O)N[C@@H](CCCCN)C(=O)NCC(=O)N1[C@H](C(=O)N[C@@H](CCCC)C(=O)N[C@H](CC(=O)O)Cc2ccccc2)C[C@@H]2CCCC[C@@H]21) [SEQ ID NO: 578]" reading=1.8
binder="Ac-RQRP[NMeR][Cha]SHKGP[Nle]P[Phe(4-Cl)]-OH (SMILES CCCC[C@H](NC(=O)[C@@H]1CCCN1C(=O)CNC(=O)[C@H](CCCCN)NC(=O)[C@H](Cc1c[nH]cn1)NC(=O)[C@H](CO)NC(=O)[C@H](CC1CCCCC1)NC(=O)[C@H](CCCNC(=N)N)N(C)C(=O)[C@@H]1CCCN1C(=O)[C@H](CCCNC(=N)N)NC(=O)[C@H](CCC(N)=O)NC(=O)[C@H](CCCNC(=N)N)NC(C)=O)C(=O)N1CCC[C@H]1C(=O)N[C@@H](Cc1ccc(Cl)cc1)C(=O)O) [SEQ ID NO: 66]" reading=0.0405
binder="Palmitoyl-[AC4Abu][AEEA][AEEA][dQ]RP[NMeR][Cha]SHKG[Pip][Aib][Phe(4-Cl)]-OH (SMILES CCCCCCCCCCCCCCCC(=O)NCCC(C(=O)O)C(=O)NCCOCCOCC(=O)NCCOCCOCC(=O)N[C@H](CCC(N)=O)C(=O)N[C@@H](CCCNC(=N)N)C(=O)N1CCC[C@H]1C(=O)N(C)[C@@H](CCCNC(=N)N)C(=O)N[C@@H](CC1CCCCC1)C(=O)N[C@@H](CO)C(=O)N[C@@H](Cc1c[nH]cn1)C(=O)N[C@@H](CCCCN)C(=O)NCC(=O)N1CCCC[C@H]1C(=O)NC(C)(C)C(=O)N[C@@H](Cc1ccc(Cl)cc1)C(=O)O) [SEQ ID NO: 581]" reading=1.4
binder="XXXQRPRLSHKGPXPF ({Decanoyl}[AC4Abu][Aeea][Aeea]QRP[NMeArg]LSHKGP[Nle]P[4-Cl-F]{COOH}) [SEQ ID NO: 494]" reading=0.0221
binder="Palmitoyl-[γGlu][AEEA][AEEA][dQ]RP[NMeR][Cha]SHKG[Oic][Nle][Pip′][dPhe(4-Cl)]-OH [SEQ ID NO: 601]" reading=3.44
